Listed below: IC50 values for each entry.
- Tested on: 186277-243-T-J2-PDC complex spheroid growth, % test/control
- test details: Anticancer human tumor 186277-243-T-J2-PDC patient-derived colon adenocarcinoma cell line growth inhibition [Asc]
- study conditions: curve of first compound; second compound 3.16 µM
Value expressed in nM; do not type the unit.

{"molecule": "CCN1CCN(Cc2ccc(Nc3ncc(F)c(-c4cc(F)c5nc(C)n(C(C)C)c5c4)n3)nc2)CC1 + Cc1c(S(C)(=O)=O)c(-c2cc(F)cc(N3CCN(c4ccc(NS(=O)(=O)c5ccc(NC(CCN6CCC(C(=O)OCCCP(=O)(O)O)CC6)CSc6ccccc6)c(S(=O)(=O)C(F)(F)F)c5)cc4)CC3)c2)c(-c2ccc(Cl)cc2)n1C(C)C", "endpoint name": "IC50", "reported value": 788}
{"molecule": "C=C(F)C(=O)N1CCN(c2nc(OCC3CCCN3C)nc3c2CCN(c2cccc4cccc(Cl)c24)C3)CC1CC#N (stereo unspecified) + Cc1c(S(C)(=O)=O)c(-c2cc(F)cc(N3CCN(c4ccc(NS(=O)(=O)c5ccc(NC(CCN6CCC(C(=O)OCCCP(=O)(O)O)CC6)CSc6ccccc6)c(S(=O)(=O)C(F)(F)F)c5)cc4)CC3)c2)c(-c2ccc(Cl)cc2)n1C(C)C", "endpoint name": "IC50", "reported value": 2180}
{"molecule": "C#Cc1c(F)ccc2cc(O)cc(-c3ncc4c(N5CC6CCC(C5)N6)nc(OCC56CCCN5CC(F)C6)nc4c3F)c12 (stereo unspecified) + Cc1c(S(C)(=O)=O)c(-c2cc(F)cc(N3CCN(c4ccc(NS(=O)(=O)c5ccc(NC(CCN6CCC(C(=O)OCCCP(=O)(O)O)CC6)CSc6ccccc6)c(S(=O)(=O)C(F)(F)F)c5)cc4)CC3)c2)c(-c2ccc(Cl)cc2)n1C(C)C", "endpoint name": "IC50", "reported value": 91.9}
{"molecule": "NC(=O)C(=Cn1cnc(-c2cc(C(F)(F)F)cc(C(F)(F)F)c2)n1)c1cncnc1 + Cc1c(S(C)(=O)=O)c(-c2cc(F)cc(N3CCN(c4ccc(NS(=O)(=O)c5ccc(NC(CCN6CCC(C(=O)OCCCP(=O)(O)O)CC6)CSc6ccccc6)c(S(=O)(=O)C(F)(F)F)c5)cc4)CC3)c2)c(-c2ccc(Cl)cc2)n1C(C)C", "endpoint name": "IC50", "reported value": 56.8}

Param item = O=C(c1cc(Cc2n[nH]c(=O)c3ccccc23)ccc1F)N1CCN(C(=O)C2CC2)CC1 + Cc1c(S(C)(=O)=O)c(-c2cc(F)cc(N3CCN(c4ccc(NS(=O)(=O)c5ccc(NC(CCN6CCC(C(=O)OCCCP(=O)(O)O)CC6)CSc6ccccc6)c(S(=O)(=O)C(F)(F)F)c5)cc4)CC3)c2)c(-c2ccc(Cl)cc2)n1C(C)C ; retrieve measured IC50.
4390

---

- Tested on: 186277-243-T-J2-PDC complex spheroid growth, % test/control
- test details: Anticancer human tumor 186277-243-T-J2-PDC cell line growth inhibition [Asc];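 note: spheroids exposed to agents for 7 days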;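 for viability, T/C: 100% = DMSO vehicle control wells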
- study conditions: second compound 0.1 µM; first compound 1 µM; stronger effect = lower value
endpoint name: viability, T/C (%)
Give the number; % is assumed, so skip it.

Query: viability, T/C; subject: C=CC(=O)N1CCN(c2nc(=O)n(-c3c(C)ccnc3C(C)C)c3nc(-c4c(O)cccc4F)c(F)cc23)C(C)C1 (stereo unspecified) + CNC(C)C(=O)NC1CN(S(=O)(=O)c2cccc(S(=O)(=O)N3CCC4CCC(C(=O)NC(c5ccccc5)c5ccccc5)N4C(=O)C(NC(=O)C(C)NC)C3)c2)CCC2CCC(C(=O)NC(c3ccccc3)c3ccccc3)N2C1=O
114
